target: 3-pTza peptide (Biotin-AminocaproicAcid-AGAG-3-pTza-AGAG); assay: BLI
recordedEndpoint: kon (M⁻¹ s⁻¹)
Please state the figure in M⁻¹ s⁻¹; there is no need to write the unit.

kon for hSC44.20 IgG (antibody, V domains shown) VH: EVQLVESGGGLVQPGGSLRLSCTASGFSIDSYGFSWVRQAPGKGLEHIGYLTAGGRAFYASWAKSRSTITRNTNENTVTLKMNSLRAEDTAVYYCAKLGTGSRFAIWGQGTLVTVSS VL: DIQMTQSPSSLSASVGDRVTITCRASQSVWRNKNVAWYQQKPGKAPKRLIYAIASLYSGVPSRFSGSGSGTDFTLTISSLQPEDFATYYCVGHYGSENDAYYAFGQGTKVEIK is 257000
